These entries and their values trace back to PubChem BioAssay (Tox21).

measurement.protocol: qHTS RealTime-Glo MT Cell Viability Assay in HEK293 cells - 16 hour (AID 1224872); note: top concentration of the series differs between compounds; nearly all actives have a fitted effect of over 50% in size
measurement.setup: RealTime-Glo luminescence; series mostly up to 76.8 µM
Inconclusive results are not listed. The source made the active and inactive calls. Calls come from the whole dose curve; as a rule, active = well fitted cell-killing curve with a large enough effect in the repeat runs; inconclusive = weak or mixed curves, or effect the other way; inactive = flat fitted curve, though single readings scatter.
parameter: outcome

Worked examples, 4 compounds total:
- compound: "ClCc1cccc(Cl)c1"
  measured.result: "inactive"
- compound: "O=C(O)C(F)(F)C(F)(F)C(F)(F)C(F)(F)C(F)(F)C(F)(F)C(F)(F)C(F)(F)C(F)(F)C(F)(F)F"
  measured.result: "inactive"
- compound: "C=CC(=O)OCC(C)C"
  measured.result: "inactive"
- compound: "Sc1ccccc1Cl"
  measured.result: "inactive"

Which outcome reading was recorded for the compound COc1cc(CC(C)N)cc2c1OCO2 (centres undefined) ? inactive

Let us now turn to COc1nn(C(=O)NS(=O)(=O)c2ccccc2OC(F)(F)F)c(=O)n1C inactive

* * *

measurement.protocol: qHTS assay for small molecules that induce genotoxicity in human embryonic kidney cells expressing luciferase-tagged ATAD5 - cell viability (AID 651634); note: nearly all actives have a fitted effect of over 25% in size
measurement.setup: HEK293T ATAD5-luc cells viability, CellTiter-Fluor, 15.5 h; series mostly up to 83.3 µM
Records with an inconclusive call do not appear. Calls of active or inactive are those of the source. Calls come from the whole dose curve.
Lab note: assign the record to one of active, inactive

Given C=CC(=O)OCC(C)C , state the outcome it received in this test. inactive

Let us now turn to Nc1ccc([N+](=O)[O-])cc1[N+](=O)[O-] active

Let us now turn to O=C(O)C1(c2ccc3c(c2)OC[C@H](Cc2ccc(-c4ccccc4)cc2)[C@H]3O)CCCC1 inactive

Let us now turn to C=COC(C)=O inactive

Let us now turn to COC(=O)C(Cl)C(=O)OC inactive

Let us now turn to CN(N=O)c1ccc([N+](=O)[O-])cc1 inactive

Let us now turn to C=CCCl inactive

Let us now turn to CCCC(Cn1cncn1)c1ccc(Cl)cc1Cl (stereo not given) inactive

Let us now turn to CC(=O)CCC(C)=O inactive

Let us now turn to IC(I)=C(I)I active

Let us now turn to CC(C)=CCOc1c2occc2cc2ccc(=O)oc12 inactive

Let us now turn to C[C@H]1CNCCc2ccc(Cl)cc21 inactive

Let us now turn to CCCCCCCCCCOC(=O)c1ccccc1C(=O)OCCCCCCCCCC inactive

Let us now turn to CCOS(C)(=O)=O inactive

Let us now turn to Nc1nc(=S)[nH][nH]1 inactive

* * *

tested.system: Aromatase (Homo sapiens) (UniProt P11511)
Sequence (P11511 whole entry, looked up): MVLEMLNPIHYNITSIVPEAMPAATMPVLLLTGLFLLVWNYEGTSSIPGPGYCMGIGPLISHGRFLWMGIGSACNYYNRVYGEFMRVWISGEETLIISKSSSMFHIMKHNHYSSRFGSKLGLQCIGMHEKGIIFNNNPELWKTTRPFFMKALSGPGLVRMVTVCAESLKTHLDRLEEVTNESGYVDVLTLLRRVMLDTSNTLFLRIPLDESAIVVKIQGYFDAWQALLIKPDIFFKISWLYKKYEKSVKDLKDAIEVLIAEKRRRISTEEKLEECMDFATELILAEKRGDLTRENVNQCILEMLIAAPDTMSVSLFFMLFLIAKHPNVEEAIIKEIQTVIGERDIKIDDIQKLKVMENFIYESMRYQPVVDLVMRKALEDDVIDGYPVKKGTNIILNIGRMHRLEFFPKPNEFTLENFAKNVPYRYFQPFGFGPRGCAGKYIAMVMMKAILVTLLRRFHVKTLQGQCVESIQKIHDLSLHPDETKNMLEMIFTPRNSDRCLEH
measurement.protocol: qHTS assay to identify aromatase inhibitors (AID 743083); note: nearly all actives have a fitted effect of over 55% in size
measurement.setup: MCF-7 aro ERE, testosterone-driven ERE luciferase, 24 h; series mostly up to 70.3 µM
Inconclusive results are not listed. Calls of active or inactive are those of the source. Calls come from the whole dose curve; as a rule, active = well fitted inhibition curve with a large enough effect in the repeat runs; inconclusive = weak or mixed curves; inactive = no such curve, though single readings can be large or run the other way.
parameter: outcome

- smiles.entry: "ClCc1ccccc1"
  tested.system: "Aromatase (Homo sapiens) (UniProt P11511)"
  outcome: "inactive"
- smiles.entry: "CCCCCCCCOC(=O)c1ccc(C(=O)OCCCCCCCC)c(C(=O)OCCCCCCCC)c1"
  tested.system: "Aromatase (Homo sapiens) (UniProt P11511)"
  outcome: "inactive"
- smiles.entry: "CCN(C)N=O"
  tested.system: "Aromatase (Homo sapiens) (UniProt P11511)"
  outcome: "inactive"
- smiles.entry: "O=[Se]=O"
  tested.system: "Aromatase (Homo sapiens) (UniProt P11511)"
  outcome: "inactive"
- smiles.entry: "Clc1cccc2ccccc12"
  tested.system: "Aromatase (Homo sapiens) (UniProt P11511)"
  outcome: "inactive"

Which outcome reading was recorded for the molecule C=CC(C)=O ? inactive

Let us now turn to O=C1c2ccccc2C(=O)C1C(=O)C(c1ccccc1)c1ccccc1 inactive

Let us now turn to O=C(O)COc1ccc(Cl)cc1 inactive
